Recorded activation by entry
test_method_notes: Wnt/beta-catenin pathway activators, primary screen, cell-based, plate reader, single point (AID 743398);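 further: 0% = neutral control wells and 100% = positive control wells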
conditions: Wnt/beta-catenin reporter cell assay, activator, at 9.35 µM, active compounds read high
In all, about 300,000 compounds went through this assay and about 3,600 (1.2%) were called active. Shown is part of a subset that was picked to be rich in actives.
Numbers only; they are read as %.

What value of measured activation is listed for CCCCCCn1c(=O)n2n(c1=O)C[C@]1(OC(=O)NCc3ccc(OC)c(OC)c3)CN(S(=O)(=O)c3ccc(C)cc3)C[C@]1(O)C2 ?
-4.95

Also NC(=O)c1c(NC(=O)c2ccccc2)sc2c1CCCC2 ?
1.12

Also COc1ccc(-c2cn3cccnc3n2)cc1 ?
26.2
